These data points were gathered from patent US20220348674A1.

Assign OD405 to each entry below.
assaySystem: T1, purified recombinant human CD40 protein (human, UniProt P25942 21-193)
T1 construct: also called recombinant CD40
T1 sequence (P25942 21-193 limits assumed): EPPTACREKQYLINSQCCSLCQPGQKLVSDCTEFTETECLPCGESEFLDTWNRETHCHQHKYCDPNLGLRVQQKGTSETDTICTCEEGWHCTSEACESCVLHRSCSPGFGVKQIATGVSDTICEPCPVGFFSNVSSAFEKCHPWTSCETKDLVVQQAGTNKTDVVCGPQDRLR
experimentalProtocol: ELISA on coated recombinant human CD40; chimeric antibody supernatant
Report field: quantity (unit follows the number).

// below: answered binders
INSERT INTO assay_data (binder, assayreadout, assayresult) VALUES
  ('2C10 rabbit-human chimeric anti-CD40 antibody (antibody, V domains shown, tested as cell culture supernatant) VH: QSLEESGGRLVTPGTPLTLTCTASGFTMNRYRMSWVRQAPGKGLEWIGTINNDAGASYASWVNGRFTISKTSSTTVDLKITGPTTEDTATYFCARAGDNIYVDLYNLWGPGTLVTVSS VL: DVVMTQTPASVSGAVGGTVTIKCQASENIFSYLAWYQQKPGQPPKLLFYGASNLASGVPSRFSGSRSGTEFTLTISDLECADAATYYCQFTNYGSSDIRSPFGGGTEVVVK', 'OD405', '2.14 OD405'),
  ('5D10 rabbit-human chimeric anti-CD40 antibody (antibody, V domains shown, tested as cell culture supernatant) VH: QSVEESGGRLVTPGTPLTLTCTVSGFSFYDHTMIWVRQAPGKGLEYIGFINIGGRAYYASWAKGRFTISRTSTTVDLEMTSLTTEDTATYFCARGDTHGYSYPEIWGPGTLVTVSS VL: DIVMTQTPASVEAGVGGTVTIKCQASQTIYSYLSWYQQKPGQPPKLLIYRASTLASGVPSRFRGSGSGTEFTLTISDLECADAAAYYCQNYYDSTSSNAFGKGTEVVVK', 'OD405', '0.98 OD405'),
  ('198 rabbit-human chimeric anti-CD40 antibody (antibody, V domains shown, tested as cell culture supernatant) VH: QSVKESEGGLFKPTDTLTLTCTVSGFSLGSYTMAWVRQAPGNGLEYIGTIDSSGSADYASWAQSRSTITRNTNLNTVTLKMTSLTAADTATYFCARPTNYEYTWALNIWGPGTLVTVSS VL: DVVMTQTPASVSEPVGGTVTIKCQASQTIYSYLAWYQQKPGQPPKLLIYGASKLASGVPSRFSGSRSGTEFTLTISDLECADAATYYCQCTGYDSAYVYNDFGGGTEVVVK', 'OD405', '1.8 OD405'),
  ('7H11 rabbit-human chimeric anti-CD40 antibody (antibody, V domains shown, tested as cell culture supernatant) VH: QSVEESGGRLVTPGTPLTLTCTVSGIDFSKYWMAWVRQAPGEGLEYIGILSTTGSTYYASWAKGRFTISKTSTTVDLKITSLTTEDTATYFCARGNYIGNGYTWDIWGPGTLVTVSS VL: DPVLTQTPSSASEPVGGTVTIKCQASQSIGSYLAWYQQKPGQPPKLLIYSPSTLASGVSSRFKGSRSGTEFTLTISDLECADAATYYCQSTAVGITFGGGTEVVVK', 'OD405', '1.46 OD405');

Input line: Endpoint output: OD405 of 7A6 rabbit-human chimeric anti-CD40 antibody (antibody, V domains shown, tested as cell culture supernatant) VH: QSVEESGGRLVTPGTPLTLACTVSGIDLSTWTMSWVRQAPGKGLEWIGIINSDSNTYYASWAKGRFTISKASTTVDLKMTSLTTEDTATYFCARGVGGYSSGPDYLDIWGPGTLVTVSS VL: DIVMTQTPASVEAAVGGTVTIKCQASQSIYRSLAWYQQKPGQPPKLLMYHASDLASGVPSRFKGSGSGTEYTLTISDLECADAATYYCQSYYYSGINTYGNAFGGGTEVVVK . Value?
Output line: 1.99 OD405
